# assayed system: human α-amylase (Homo sapiens, UniProt P0DUB6)
# Sequence (P0DUB6 16-511): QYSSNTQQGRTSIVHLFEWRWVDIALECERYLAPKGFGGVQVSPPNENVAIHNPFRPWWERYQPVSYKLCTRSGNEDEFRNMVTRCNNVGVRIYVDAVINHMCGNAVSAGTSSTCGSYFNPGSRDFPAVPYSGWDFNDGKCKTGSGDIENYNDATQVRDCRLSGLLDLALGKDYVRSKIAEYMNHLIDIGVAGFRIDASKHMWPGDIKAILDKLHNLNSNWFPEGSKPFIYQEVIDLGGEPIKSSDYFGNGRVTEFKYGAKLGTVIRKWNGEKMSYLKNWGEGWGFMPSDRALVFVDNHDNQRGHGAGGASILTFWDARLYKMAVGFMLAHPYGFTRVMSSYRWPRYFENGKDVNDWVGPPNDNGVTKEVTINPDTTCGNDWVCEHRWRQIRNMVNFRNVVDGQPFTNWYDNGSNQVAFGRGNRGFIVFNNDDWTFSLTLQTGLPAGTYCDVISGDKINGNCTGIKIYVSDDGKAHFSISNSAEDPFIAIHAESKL
# test name: human α-amylase inhibition assay
# Type: biochemical
# measurement context: Dixon plot, intercept = -Ki
pKi: −log10 of the molar value.

{"columns": ["compound", "pKi"],
 "data": [
  ["O=c1cc(-c2ccc(O)cc2)oc2cc(O[C@@H]3O[C@H](CO)[C@@H](O)[C@H](O)[C@H]3O)cc(O)c12 [apigenin 7-O-glucoside, apigenin-7-O-glucoside]", 4.77]
]}
